- Subject Of Test: bovine serum albumin (BSA) (Bos taurus)
- Sequence (P02769 25-607): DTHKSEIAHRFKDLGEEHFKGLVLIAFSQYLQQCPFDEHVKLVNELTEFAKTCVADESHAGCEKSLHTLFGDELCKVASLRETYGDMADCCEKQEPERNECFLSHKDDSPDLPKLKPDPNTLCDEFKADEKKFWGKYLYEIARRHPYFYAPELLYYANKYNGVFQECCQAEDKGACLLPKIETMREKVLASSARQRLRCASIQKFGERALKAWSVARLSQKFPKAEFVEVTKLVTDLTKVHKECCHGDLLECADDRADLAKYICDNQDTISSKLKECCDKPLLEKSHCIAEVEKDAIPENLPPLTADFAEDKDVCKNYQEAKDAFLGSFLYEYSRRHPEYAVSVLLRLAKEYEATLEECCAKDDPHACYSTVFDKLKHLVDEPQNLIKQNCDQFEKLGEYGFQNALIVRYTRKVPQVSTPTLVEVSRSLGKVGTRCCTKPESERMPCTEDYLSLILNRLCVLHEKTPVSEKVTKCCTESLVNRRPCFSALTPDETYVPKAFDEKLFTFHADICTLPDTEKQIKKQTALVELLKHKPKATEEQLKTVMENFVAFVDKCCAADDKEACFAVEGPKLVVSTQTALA
- Protocol Description: steady-state tryptophan fluorescence quenching titration in PBS
- Assay type: binding
Parameter: Kd (µM)
Give just the number in µM; leave the unit off.

Prompt: In one line, give reported Kd of the entry Cn1cc(C2=C(c3ccc(Cl)cc3Cl)C(=O)NC2=O)c2ccccc21 [SB216763] .
Completion: 5.2

----------
- Subject Of Test: hen egg-white lysozyme (HEWL) (Gallus gallus, UniProt P00698)
- Sequence (P00698 19-147): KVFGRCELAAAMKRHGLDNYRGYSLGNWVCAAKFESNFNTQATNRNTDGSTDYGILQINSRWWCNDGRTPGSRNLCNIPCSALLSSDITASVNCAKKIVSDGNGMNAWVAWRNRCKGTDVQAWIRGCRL
Parameter: pKd
Convention used: pKd is expressed as -log10 of the molar concentration.

Prompt: Lab note: record pKd of Cn1cc(C2=C(c3ccc(Cl)cc3Cl)C(=O)NC2=O)c2ccccc21 tested on hen egg-white lysozyme (HEWL) (Gallus gallus, UniProt P00698).
Completion: 5.77

Attribution: paper PMC9490042
